Hello, the source for this data is the supplement of paper PMC9732359, in case you need it.

assay: protein stability index of a GFP-peptide fusion (yeast GPS) (PSI 1-4); higher = more stable; sorted into four equal gates, so the index is relative within each strain; conditions: ubr1∆
Please respond with reported protein stability index for every item in the list.
Reply: number alone, nothing else.

## Input # query: protein stability index of entry VHVQLLINLKISPLMKS [SRB8]
## Output 1.44

## Input # query: protein stability index of entry KSMKYVKKILPLYARYI [ECM29]
## Output 1.18

## Input # query: protein stability index of entry GVTSLGIKATNGVVIAT [PRE8]
## Output 3.28

## Input # query: protein stability index of entry LATNSLVEEFMLLANIS [DIS3]
## Output 2.37

## Input # query: protein stability index of entry DRTQDRADVEDESNDID [RPC37]
## Output 3.4

## Input # query: protein stability index of entry GIGALFTQQELQKQMGI [RPC34]
## Output 2.69

## Input # query: protein stability index of entry WVTEVLGNDIPHDLIIG [BRR2]
## Output 2.89

## Input # query: protein stability index of entry AFPKDDRSKPVALTSFL [RPL3]
## Output 1.95

## Input # query: protein stability index of entry LPFYAILRSIPDKLLGV [COB]
## Output 1.99

## Input # query: protein stability index of entry SHHLKADTIDHDELIDS [YGL172W/NUP49]
## Output 3.08

## Input # query: protein stability index of entry FRSLFFRSYMDQEKKYG [RPB2]
## Output 2.57

## Input # query: protein stability index of entry PSENDVFYRMQQLRRAL [RPO31]
## Output 2.14

## Input # query: protein stability index of entry HQSELIIKQTVHPIPDV [YMR129W/POM152]
## Output 2.27

## Input # query: protein stability index of entry PEKKEMIQEVIVEEDLE [FAS2]
## Output 3.36

* * *

assay: protein stability index of a GFP-peptide fusion (yeast GPS) (PSI 1-4); higher = more stable; sorted into four equal gates, so the index is relative within each strain; settings: san1∆
Rule: protein stability index of 3 or more gives fulfilled; anything lower gives not fulfilled.

## Input Has YITLKATFLKDDLPYYV [QCR2] a recorded protein stability index greater than or equal to 3?
## Output not fulfilled

## Input Has RRILAAAAAAAAAVSGN [SSN3] a recorded protein stability index greater than or equal to 3?
## Output not fulfilled

## Input Has YGFKQEIFDVTSNGLKK [FAS1] a recorded protein stability index greater than or equal to 3?
## Output not fulfilled

## Input Has NGALDPKMGVSSSSLEC [RPO31] a recorded protein stability index greater than or equal to 3?
## Output fulfilled

## Input Has ENKTKKDNDKNLKFLKN [SRB4] a recorded protein stability index greater than or equal to 3?
## Output fulfilled

* * *

Please respond with reported protein stability index for every item in the list.
assay: protein stability index of a GFP-peptide fusion (yeast GPS) (PSI 1-4); higher = more stable; sorted into four equal gates, so the index is relative within each strain; conditions: doa10∆

## Input # query: protein stability index of entry SSEFVSQDTKVICSVTG [RRP46]
## Output 2.67

## Input # query: protein stability index of entry FQHILRLLNTNVDGNIK [RPS18A]
## Output 2.87

## Input # query: protein stability index of entry TPMTRISELPPQIRQEI [YGL172W/NUP49]
## Output 2.84

## Input # query: protein stability index of entry QVQGQQQAQSFVGKKNT [SSN3]
## Output 2.55

## Input # query: protein stability index of entry HAGTAIGIMASDGIVLA [PRE9]
## Output 2.96

## Input # query: protein stability index of entry ESNKRYRFFKKISEDPV [SNF12]
## Output 3.16

## Input # query: protein stability index of entry NLDFDPRDVIKGKDFEI [FAS1]
## Output 3.47

## Input # query: protein stability index of entry INSDNQNIILRSTMMKF [RPN3]
## Output 2.82

## Input # query: protein stability index of entry NRSNDALIKFMEYHISN [FAS2]
## Output 2.93

## Input # query: protein stability index of entry CTSLMDIIVAIKIFELK [IRR1]
## Output 2.1

## Input # query: protein stability index of entry YKKSTENESTNYQYKIQ [MED7]
## Output 2.58

## Input # query: protein stability index of entry YQLNDRNVTKGDIVRML [SMC3]
## Output 2.72

## Input # query: protein stability index of entry NSKPEKSSDSNDSNPSF [YLR335W/NUP2]
## Output 2.47

## Input # query: protein stability index of entry ENLVVADLESFANNHFL [COR1]
## Output 1.7

## Input # query: protein stability index of entry HYLFNTFTFTAHMGVLL [SWP82]
## Output 1.69

## Input # query: protein stability index of entry VVMAMYNPKMIDDRDYV [RET1]
## Output 3.36

## Input # query: protein stability index of entry GENIDADNDGPRINNIS [SNF2]
## Output 3.44

## Input # query: protein stability index of entry NFTSPTAVVNNAAPANV [SWI1]
## Output 2.86

## Input # query: protein stability index of entry TIYNLQHHVTDADKLSF [YML031W/NDC1]
## Output 1.94

## Input # query: protein stability index of entry VTRIINSSEIQSAIRPA [RPL4A]
## Output 2.32

## Input # query: protein stability index of entry SKKGKPTVNKKPKNKKK [SRP72]
## Output 2.73

## Input # query: protein stability index of entry DALVKRFKNSVKWYHFD [PRE7]
## Output 3.19

## Input # query: protein stability index of entry STPGGGSVFNMNGNTNA [YOR098C/NUP1]
## Output 2.87

## Input # query: protein stability index of entry LRNVFLGKCSRITDASL [GRR1]
## Output 2.94

## Input # query: protein stability index of entry YTEFIDSFIEKIIPKDI [ITC1]
## Output 2.79

## Input # query: protein stability index of entry AELIPELYSFQQLVDSE [SNF12]
## Output 1.79

## Input # query: protein stability index of entry FDSVIVENLTVAQECIA [SMC1]
## Output 1.69

## Input # query: protein stability index of entry KIRARSITLQGDVYDPE [SMC2]
## Output 2.07

## Input # query: protein stability index of entry YISFIKDDRFVPVRKFK [RPN2]
## Output 2.41

## Input # query: protein stability index of entry LTLQEDYIKDEQRHLKR [RPT3]
## Output 3.43
